# credit: PubChem BioAssay (NCI)

System: RXF-631 renal
Test: NCI tumour cell line growth inhibition, 48 h
# TGI per entry

In [3]: df
Out[3]:
                              compound  experimentalsystem  measvalue
0    CS(=O)(=O)c1nc(Cl)c(Cl)c(C#N)c1Cl       RXF-631 renal    38.9 µM
1  OC1C2C=CCC1CCC2 (centres undefined)       RXF-631 renal   > 100 µM
2                 Cc1cc(C)c2[s+]snc2c1       RXF-631 renal   > 100 µM

Field request: TGI | item: `Cc1cc2c(cc1C)[n+]([O-])c(-c1c(Cl)cccc1Cl)c(N)[n+]2[O-]`
35.7 µM

Try this compound next: O=C1C2Nc3ccccc3SC2C(=O)N1c1cccc([N+](=O)[O-])c1 (centres undefined)
> 100 µM

Query C[C@]12CCCC(=O)C1C[C@H](C(=O)O)CC2 (some centres undefined) next
> 100 µM

Thanks! And COC(=O)C(=O)C1CCCCC(C2=NC3NN=C(N)N3C2=O)C1=O (centres undefined) ?
> 100 µM

Next compound up: `CP(C)C.[Ag][I]`
> 100 µM

Now the compound C=C1CC(C/C=C(\C)CC2CC(=C)C(=O)O2)OC1=O (centres undefined)
> 100 µM

====

Test system: A549 NSCLC
Test: NCI tumour cell line growth inhibition, 48 h
Where a SMILES comes first, the peptide text is derived from it. The star is where a group is joined. Boc = CC(C)(C)OC(=O)*
In this section we review reported TGI values for a set of compounds.
Express the result in µM but write the number alone.

compound	TGI (µM)
Cc1cc2nc3c4ccccc4n(CCN(C)C)c3nc2cc1C	11.5
CCOC(=O)C(CC(C)C)NC(=O)C(Cc1ccccc1)NC(=O)CNC(=O)OC(C)(C)C (stereo not drawn) (Boc-Gly-Phe-Leu-OEt; configuration not given here)	44.1
CCOc1ccc2c(c1)NC(=O)C(C1OC(c3ccccc3)=CC1=O)S2 (centres undefined)	46.8

Then this compound:
Give recorded TGI with A549 NSCLC for the following compound: `CN(C)CCOc1nc2ccccc2c2c1-c1ccc(Cl)cc1C2=O`
5.25

====

Test system: CAKI-1 renal
Experiment: NCI tumour cell line growth inhibition, 48 h
measuredParameter: TGI

Known results for molecules:
molecule	TGI
Cc1sc(/N=C2/NC(=O)CS2)nc1-c1nc(/N=C2/NC(=O)CS2)sc1C	> 50 µM
COC(=O)/C(=N\O)C(C(=O)C=C(C)C)C(=O)C(=O)Nc1ccccc1C (configuration not stated)	> 100 µM
N#Cc1ccccc1Nc1ccccc1S	> 100 µM
COC(=O)c1ccc(NCc2cc(O)ccc2O)cc1O	17.7 µM
OC1C2C=CCC1CCC2 (configuration not stated)	> 100 µM

If you can, please state the reported TGI value of `Cc1cc2c(cc1C)[n+]([O-])c(-c1c(Cl)cccc1Cl)c(N)[n+]2[O-]` .
95.1 µM

Try this molecule too: `C[C@H](O)C(=O)SC[C@H](NC(=O)CC[C@@H](N)C(=O)O)C(=O)NCC(=O)O`
> 100 µM

Item: `CCCOCN1COCN=C1NC#N`
> 100 µM

Please answer likewise for Cc1cc(-c2nc3cc(F)ccc3s2)ccc1NC(=O)C(C)N (configuration not stated)
8.64 µM

Same read-out for `NC(N)=NS(=O)(=O)c1ccc(NNc2c3ccccc3nc3c(C(=O)Nc4ccc(S(N)(=O)=O)cc4)cccc23)cc1` ?
> 100 µM

For `CC(=O)/C=C/C1=C(c2ccsc2)c2ccccc2CC1` then?
83.4 µM

Query CN(C)CCC(C(=O)C(C)(C)C)c1ccccn1 (configuration not stated) next
> 100 µM

Can you check `COc1ccc(-n2cc(-c3ccc(OC)c(OC)c3)nc2SCc2ccccc2)cc1Cl` next?
> 100 µM

What about this molecule? `COc1ccc2c(c1)CC[C@@H]1[C@@H]2CC[C@]2(C)[C@@H](O)/C(=C/c3ccncc3)C[C@@H]12`
34.2 µM

Please do the same for `C[C@@H]1CN2[C@H]3[C@@H]1CC[C@]31CCC(=O)O[C@]1(C)[C@@H]1CC[C@H]3CCC=C3[C@@H]12` as well.
> 70 µM

====

Test system: K-562 leukemia
Experiment: NCI tumour cell line growth inhibition, 48 h; in the data active = GI50 below about 0.43 µM; inactive = the rest
Hi there, use one of these labels in your reply, thanks! TRUE (active), FALSE (inactive)

Below, 4 molecules whose answers are already recorded.
In [3]: df
Out[3]:
                                   molecule  assignedclass
0  Oc1[nH]c2ccc(Cl)cc2c1/C=c1/ccc2c(c1)N=C(c1cc(F)cc(F)c1)N=2          FALSE
1  Cc1c(N2C(=O)/C(=C\c3ccc(N(C)C)cc3)N=C2c2ccccc2)c(=O)n(-c2ccccc2)n1C          FALSE
2          CCOC(=O)C(Cc1ccc(OC)cc1)C(=O)OCC          FALSE
3             C/C(=N\Nc1cccc(Cl)n1)c1ccccn1          FALSE

Hi, sorry to bother you, what did the test record for C[C@@H](Oc1cc(-c2cnn(C3CC4(CCCNC4)C3)c2)cnc1N)c1c(Cl)ccc(F)c1Cl (stereo not given in full) ?
TRUE

Same again, this time with `COC(=O)Nc1nc2ccc(Sc3ccccc3)cc2[nH]1`
TRUE

Another molecule to check: `CC(=O)/C=C/C1=C(c2ccsc2)c2ccccc2CC1`
FALSE

Moving on to the next molecule: Cc1cccnc1CNC1CC(NCc2ncccc2C)CC(NCc2ncccc2C)C1 (stereo not given)
FALSE

Now consider COc1cc(C2C(C#N)=C(N)Oc3cc4c(cc32)OCO4)cc2c1OCO2 (stereo not given) and answer again.
TRUE

Next: `CCc1ccccc1-n1c(N)c(C#N)c(-c2ccc(OC)c(OC)c2)c(C#N)c1=O`
FALSE

====

System: OVCAR-4 ovarian
Test: NCI tumour cell line growth inhibition, 48 h; in the data active means GI50 below about 0.43 µM; inactive means the rest
Pick from active, inactive when you respond.

Could you check what this test reported for O=C(Nc1ccc(S(=O)(=O)NC2CCCCCC2)cc1)C(c1ccccc1)S(=O)(=O)c1ccc(F)cc1 (stereo unspecified) ?
inactive

Moving on to the next compound: `C=C(C)[C@@H]1CC[C@]2(C)[C@H](C=CC3=C4C[C@@](C)(CO)CC[C@]4(C)CC[C@]32C)[C@@]1(C)CCCN`
inactive

Next up: O=C(CC1(O)C(=O)Nc2c(Cl)ccc(Cl)c21)c1ccc(C2CC2)cc1 (stereo unspecified)
inactive

What about COc1ccc(NC(=O)O[C@H]2[C@H](O[C@H]3[C@@H](O)COC(O[C@H]4C[C@H]5[C@@H]6CC=C7C[C@@H](O)CC[C@]7(C)[C@H]6CC[C@]5(C)[C@H]4[C@H](C)C(=O)CCC(C)C)[C@@H]3OC(C)=O)OC[C@@H](O)[C@@H]2O)cc1 (stereo partly specified) ?
active

And `CCC[CH2][Sn]1([CH2]CCC)[O]C(=O)c2cc(C)ccc2[O]1` ?
inactive

Next: CC(C)N(C[C@H]1O[C@@H](n2cnc3c(N)ncnc32)[C@H](O)[C@@H]1O)C1CC(CCc2nc3ccc(C(C)(C)C)cc3[nH]2)C1 (stereo partly specified)
inactive

Now give it for `Brc1ccc(Br)nn1` too.
inactive

# repeat for COc1ccc(C2C3=C(COC3=O)N(CCO)c3cc4c(cc32)OCCO4)cc1OC (stereo unspecified)
inactive

Next record, please: CCCCCCC1N=C(N)N=C(N)N1c1ccc(Cl)cc1 (stereo unspecified)
inactive

Likewise for Cc1cc2c(C(C)C)c(O)c(O)c(C=O)c2c(O)c1-c1c(C)cc2c(C(C)C)c(O)c(O)c(C=O)c2c1O (tested in a mixture with another compound) ?
inactive

What do you have for CC(=O)OCC(=O)C1(O)C(C)CC2C3C=C(C)C4=Cc5c(cnn5-c5ccccc5)CC4(C)C3C(O)CC21C (stereo unspecified) ?
inactive

Next record, please: `COc1cccc(Nc2nccc(Nc3ccc4[nH]ncc4c3)n2)c1`
inactive

Field entry: C[C@@H](Oc1cc(-c2cnn(C3CC4(CCCNC4)C3)c2)cnc1N)c1c(Cl)ccc(F)c1Cl (stereo partly specified)
inactive

And what about the compound `C=C=[CH][Sn]([c]1ccccc1)([c]1ccccc1)[c]1ccccc1` ?
inactive

`N#Cc1c(Oc2ccc(F)c(NC(=O)Cc3cccc(C(F)(F)F)c3)c2)ccc2nc(NC(=O)C3CC3)sc12` ?
inactive

Then `CC[C@H](C)[C@H](NC(=O)C12CC(NC(C)=O)(C1)C2)C(=O)N(C)[C@H](C[C@@H](OC(C)=O)c1nc(C(=O)N[C@@H](Cc2ccccc2)C[C@H](C)C(=O)OC)cs1)C(C)C` ?
inactive

====

System: LOX IMVI melanoma
Assay: NCI tumour cell line growth inhibition, 48 h
measuredParameter: TGI (µM)
// return numeric value only (unit: µM, not printed)

Consider the reported TGI for these compounds:
In [3]: df
Out[3]:
                                 chemsmiles  measvalue
0  O=C(CCc1cccc(O)c1)NCCc1cccc(OCc2ccccc2)c1       29.8
1  CCOC(=O)c1c(C(F)(F)F)oc2c1ccc1nc3nonc3nc12       31.8

Below: the item to evaluate.
Which value of TGI has been reported for `Brc1ccc(Br)nn1` in the records?
2.88
